Assay: ATG_M_32_CIS: Attagene CIS-FACTORIAL HepG2 Assay for M32 Transcription Factor (Internal Marker) (AID 2282949);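 note: background control marker of the multiplexed CIS panel rather than a real target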
Conditions: HepG2 Attagene cis-factorial M32 reporter, mRNA; actives raise or lower the signal
Active and inactive are the calls of the source. Rule for the calls: active = hit-call score of the fitted dose curve at least 0.9, where 1 is the maximum; inactive = score below 0.9.
A correct response names exactly one class from active, inactive

// below: answered compounds
Compound: CC(C)(C)C(=O)C=Cc1ccc(Cl)cc1
Category: active

Compound: CC(C)CC(O)Cc1ccccc1 (configuration not stated)
Category: inactive

Compound: [Cl][Nd]([Cl])[Cl]
Category: inactive

Compound: CCN(CC)c1ccc(C(=O)c2ccccc2C(=O)O)c(O)c1
Category: inactive

Compound: CC(=O)OC(C)C
Category: inactive

Please share the test call associated with `CCOC(F)(F)C(F)(F)C(F)(F)C(F)(F)F` .
inactive

Check the results log: what was the call for `CCN(CCC#N)c1ccc(N=Nc2c(Cl)cc([N+](=O)[O-])cc2Cl)cc1` ?
inactive
